Target: T1, human SIRPβ1 isoform 1 on cells (human, UniProt O00241 30-398)
T1 construct: On CHO cells (low level), on BWZ/BW5147.G.1.4 cells (reporter cells co-express human DAP12) or on primary human myeloid cells; also called huSIRPβ1; BWZ-huSIRPβ1
T1 sequence (O00241 30-398): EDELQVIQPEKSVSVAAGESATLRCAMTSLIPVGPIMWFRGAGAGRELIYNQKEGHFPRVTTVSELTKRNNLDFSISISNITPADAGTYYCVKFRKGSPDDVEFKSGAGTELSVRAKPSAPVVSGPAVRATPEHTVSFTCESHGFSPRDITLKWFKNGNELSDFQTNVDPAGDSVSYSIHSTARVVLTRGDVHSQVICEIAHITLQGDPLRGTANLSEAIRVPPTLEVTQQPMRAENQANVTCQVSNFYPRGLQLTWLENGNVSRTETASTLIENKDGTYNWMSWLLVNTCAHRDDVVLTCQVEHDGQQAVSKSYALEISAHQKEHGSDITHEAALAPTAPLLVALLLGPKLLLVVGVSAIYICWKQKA
Assay: flow cytometry;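 note: antibody binding to cells detected with a PE-labelled secondary antibody, given as mean fluorescence intensity relative to background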
Record form. Attribute: FOB. Fill in for each entry.
Numbers only, in fold over background.

Hi there! I need FOB for each item below, if you can.
1. SB-2-11 (antibody, V domains shown, IgG) VH: QVQLVESGGGLVQPGGSLRLSCAASGFTFARYGMHWVRQAPGKGLEWVSAISGLAGPTYADSVKGRFTISRDNSKNTLYLQMNSLRAEDTAVYYCARDQTAAWGIWGMDVWGQGTTVTVSS VL: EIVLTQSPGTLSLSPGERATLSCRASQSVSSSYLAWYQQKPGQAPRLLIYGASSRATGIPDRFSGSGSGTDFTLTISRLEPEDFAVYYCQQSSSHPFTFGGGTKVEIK
2. SB-8-16 (antibody, V domains shown, IgG) VH: QVQLQESGPGLVKPSETLSLTCAVSGYSISAHYYWGWIRQPPGKGLEWIGSIFHSGHTYYNPSLKSRVTISVDTSKNQFSLKLSSVTAADTAVYYCARAGAMTPAGMDVWGQGTTVTVSS VL: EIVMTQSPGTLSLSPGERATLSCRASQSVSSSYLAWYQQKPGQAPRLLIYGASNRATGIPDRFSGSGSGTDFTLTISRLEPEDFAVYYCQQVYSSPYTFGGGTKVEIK

[6, 9]

Give measured FOB for every item shown.
1. SB-40-21 (antibody, V domains shown, IgG) VH: QVQLVQSGAEVKKPGASVKVSCKASGYTFTSYYMVWVRQAPGQGLEWMGIINPSSGDTNYAQKFQGRVTMTRDTSISTAYMELSRLRSDDTAVYYCARDTGEYSYSPHGMDVWGQGTTVTVSS VL: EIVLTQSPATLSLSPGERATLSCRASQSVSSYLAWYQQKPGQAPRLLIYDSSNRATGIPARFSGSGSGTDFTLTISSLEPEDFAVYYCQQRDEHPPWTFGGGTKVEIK
2. SB-1-3 (antibody, V domains shown, IgG) VH: EVQLVESGGGLVKPGGSLRLSCAASGFTFSAYGMNWVRQAPGKGLEWVSAITSSGRSTYYADSVKGRFTISRDNSKNTLYLQMNSLRAEDTAVYYCAKDFTEVVGWLGMDVWGQGTTVTVSS VL: EIVMTQSPGTLSLSPGERATLSCRASQSVSSSYLAWYQQKPGQAPRLLIYGASSRATGIPDRFSGSGSGTDFTLTISRLEPEDFAVYYCQLLGSSPRTFGGGTKVEIK

5
4
